Please go through the items and note down their selectivity ratio.
experiment: Therapeutic index, ratio of IC50 for human MRC5 cells to IC50 for human CCRF-CEM cells; format: cell-based; details: MRC5 cells versus CCRF-CEM cells, read-out: Ratio IC50
Numbers only.

entry_smiles	value_measured
C=C(C)[C@@H]1CC[C@]2(C(=O)O)CC[C@]3(C)[C@H](CC[C@@H]4[C@@]5(C)C/C(=C/O)C(=O)C(C)(C)[C@@H]5CC[C@]43C)[C@@H]12	8.5

--- query ---
Item `CC(C)[C@@H]1CC[C@]2(C(=O)O)CC[C@]3(C)[C@H](CC[C@@H]4[C@@]5(C)CC(Br)(Br)C(=O)C(C)(C)[C@@H]5CC[C@]43C)[C@@H]12` has what recorded selectivity ratio?
8
